- testSystem: CDK9/Cyclin T1 complex (Homo sapiens)
- Sequence (P50750 whole entry): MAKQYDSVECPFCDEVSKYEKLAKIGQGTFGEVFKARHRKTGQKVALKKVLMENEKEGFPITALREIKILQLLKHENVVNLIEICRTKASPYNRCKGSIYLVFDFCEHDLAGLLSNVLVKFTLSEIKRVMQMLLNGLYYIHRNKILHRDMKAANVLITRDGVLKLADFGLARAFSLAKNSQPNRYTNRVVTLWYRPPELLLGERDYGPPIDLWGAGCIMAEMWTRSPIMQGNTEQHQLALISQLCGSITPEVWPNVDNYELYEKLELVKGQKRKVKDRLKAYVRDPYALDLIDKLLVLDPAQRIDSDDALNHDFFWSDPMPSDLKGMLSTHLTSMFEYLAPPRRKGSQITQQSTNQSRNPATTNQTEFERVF
- Sequence (O60563 whole entry partner): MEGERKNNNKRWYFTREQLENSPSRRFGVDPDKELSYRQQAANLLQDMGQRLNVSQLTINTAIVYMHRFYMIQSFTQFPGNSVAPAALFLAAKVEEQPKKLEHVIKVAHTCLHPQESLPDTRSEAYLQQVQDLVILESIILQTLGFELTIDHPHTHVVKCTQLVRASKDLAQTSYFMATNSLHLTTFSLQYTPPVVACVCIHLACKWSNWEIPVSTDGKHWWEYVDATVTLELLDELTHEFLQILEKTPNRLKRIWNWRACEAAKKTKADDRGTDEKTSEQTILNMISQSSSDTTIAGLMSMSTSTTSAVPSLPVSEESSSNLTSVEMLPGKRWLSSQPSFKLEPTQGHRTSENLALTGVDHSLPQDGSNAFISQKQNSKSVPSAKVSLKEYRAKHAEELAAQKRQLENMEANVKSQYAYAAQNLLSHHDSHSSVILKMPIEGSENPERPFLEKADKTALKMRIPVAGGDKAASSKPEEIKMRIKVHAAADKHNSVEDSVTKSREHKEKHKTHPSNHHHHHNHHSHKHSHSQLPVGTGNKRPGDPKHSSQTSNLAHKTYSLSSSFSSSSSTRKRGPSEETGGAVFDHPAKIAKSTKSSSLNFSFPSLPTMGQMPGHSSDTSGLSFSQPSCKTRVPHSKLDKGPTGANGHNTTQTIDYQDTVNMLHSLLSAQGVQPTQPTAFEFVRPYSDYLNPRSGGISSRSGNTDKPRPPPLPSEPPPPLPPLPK
- assayProtocol: CDK9 kinase inhibition assay (Caliper/LabChip EZ Reader)
- statedConditions: CDK9/Cyclin T1 8 nM, ATP 2 mM, 15 min at 27° C.
Could you please report measured IC50 for the items listed next?

Query :: # get_value(readout='IC50', item= FC(F)(F)c1cnc(N[C@H]2CCCNC2)nc1-c1c[nH]c2cc(-n3ccnc3)ccc12 [Compound 248] )
Result :: 0.2 to 5 µM

Query :: Bench note: what IC50 did Cc1ccc2[nH]cc(-c3nc(NC4CCCNC4)ncc3Cl)c2c1 (centres unmarked) [Compound 108] show?
Result :: 0.2 to 5 µM

Query :: Which IC50 value is on record for FC(F)(F)c1cnc(NC2CCC3(CC3)NC2)nc1-c1c[nH]c2ccccc12 (centres unmarked) [Compound 212] ?
Result :: 0.2 to 5 µM

Query :: Using the record for CCC1(Nc2ncc(Cl)c(-c3c[nH]c4ccccc34)n2)CCCNC1 (centres unmarked) [Compound 128] , report its IC50.
Result :: ≥ 5 µM

Query :: # lookup: IC50 of Oc1ncccc1-c1ccc2c(-c3nc(NC4CCCNC4)ncc3C(F)(F)F)c[nH]c2c1 (centres unmarked) [Compound 310]
Result :: ≥ 5 µM

Query :: What measured IC50 goes with CC(C)c1cnc(N[C@H]2CCCNC2)nc1-c1n[nH]c2nc(C#N)ccc12 [Compound 276] ?
Result :: ≥ 5 µM

Query :: Bench note: what IC50 did [O-][S+](c1ccc2c(-c3nc(NC4CCCNC4)ncc3C(F)(F)F)c[nH]c2c1)C(F)F (centres unmarked) [Compound 380] show?
Result :: 0.2 to 5 µM

Query :: Requested field: IC50. Item: Cc1ccncc1-c1ccc2c(-c3nc(NC4CCCNC4)ncc3C(F)(F)F)c[nH]c2c1 (centres unmarked) [Compound 336]
Result :: 0.2 to 5 µM

Query :: Fill in the blank: the reported IC50 of FCCc1cnc(NC2CCCNC2)nc1-c1c[nH]c2ccccc12 (centres unmarked) [Compound 206] is ____.
Result :: 0.2 to 5 µM

Query :: Param item = Clc1cnc(NC2CCCNC2)nc1-c1c[nH]c2ccccc12 (centres unmarked) [Compound 100] ; retrieve measured IC50.
Result :: 0.2 to 5 µM

Query :: What value of IC50 has been recorded for this entry: O=C1CCN(C(=O)c2ccc3c(-c4nc(NC5CCCNC5)ncc4C(F)(F)F)c[nH]c3c2)C1 (centres unmarked) [Compound 302]
Result :: 0.2 to 5 µM

Query :: Query: IC50; subject: Cc1nc(-c2ccc3c(-c4nc(NC5CCCNC5)ncc4C(F)(F)F)c[nH]c3c2)n[nH]1 (centres unmarked) [Compound 235]
Result :: 0.2 to 5 µM

Query :: I'd like to know its IC50. The compound in question is Fc1cccc(-c2ccc3c(-c4nc(NC5CCCNC5)ncc4C(F)(F)F)c[nH]c3c2)c1 (centres unmarked) [Compound 345]
Result :: ≥ 5 µM

Query :: Please look up its IC50: CC(=O)c1cccc2c(-c3nc(NC4CCCNC4)ncc3Cl)c[nH]c12 (centres unmarked) [Compound 142]
Result :: 0.2 to 5 µM

Query :: For COCCN1CCCC(Nc2ncc(Cl)c(-c3c[nH]c4ccccc34)n2)C1 (centres unmarked) [Compound 149] , what is its reported IC50?
Result :: 0.2 to 5 µM

Query :: Item under review: Cc1cccc2c(-c3nc(NC4CCCNC4)ncc3Cl)c[nH]c12 (centres unmarked) [Compound 112] . Reported IC50?
Result :: 0.2 to 5 µM

Query :: Give its IC50 value. Item: CC(C)(O)CCc1ccc2c(-c3nc(NC4CCCNC4)ncc3C(F)(F)F)c[nH]c2c1 (centres unmarked) [Compound 242]
Result :: 0.2 to 5 µM

---

Would you mind telling me the reported pIC50 of each entry?
- testSystem: CDK7/Cyclin H/MAT1 complex (Homo sapiens, UniProt P50613)
- Sequence (P50613 whole entry): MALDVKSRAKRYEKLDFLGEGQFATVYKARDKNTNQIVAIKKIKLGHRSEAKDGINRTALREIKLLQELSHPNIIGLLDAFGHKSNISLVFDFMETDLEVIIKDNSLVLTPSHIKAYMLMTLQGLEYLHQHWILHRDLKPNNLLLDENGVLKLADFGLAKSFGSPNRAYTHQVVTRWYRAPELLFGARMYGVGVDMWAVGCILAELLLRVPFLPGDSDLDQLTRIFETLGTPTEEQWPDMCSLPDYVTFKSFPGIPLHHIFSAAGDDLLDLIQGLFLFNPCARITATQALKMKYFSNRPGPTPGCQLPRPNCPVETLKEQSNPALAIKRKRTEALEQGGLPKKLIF
- Sequence (P51946 whole entry partner): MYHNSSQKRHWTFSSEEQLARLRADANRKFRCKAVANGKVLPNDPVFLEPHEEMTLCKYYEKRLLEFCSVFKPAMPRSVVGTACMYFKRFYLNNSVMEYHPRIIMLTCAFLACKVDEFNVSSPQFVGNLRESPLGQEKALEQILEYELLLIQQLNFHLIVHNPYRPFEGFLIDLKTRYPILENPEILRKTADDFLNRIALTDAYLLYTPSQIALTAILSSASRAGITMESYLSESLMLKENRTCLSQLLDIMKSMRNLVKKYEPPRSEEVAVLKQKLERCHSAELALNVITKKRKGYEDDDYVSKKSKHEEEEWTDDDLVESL
- Sequence (P51948 whole entry partner): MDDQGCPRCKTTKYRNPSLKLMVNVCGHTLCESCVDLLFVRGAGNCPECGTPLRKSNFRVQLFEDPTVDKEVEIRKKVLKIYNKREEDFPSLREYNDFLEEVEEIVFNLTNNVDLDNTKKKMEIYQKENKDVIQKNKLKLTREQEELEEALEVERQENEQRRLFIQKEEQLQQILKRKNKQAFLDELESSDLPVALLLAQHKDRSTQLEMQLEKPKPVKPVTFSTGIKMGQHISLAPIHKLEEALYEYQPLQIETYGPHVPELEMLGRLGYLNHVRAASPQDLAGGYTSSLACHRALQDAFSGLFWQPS
- assayProtocol: CDK7 kinase inhibition assay (Caliper/LabChip EZ Reader)
- statedConditions: CDK7/Cyclin H/MAT1 6 nM, ATP 2 mM, 35 min at 27° C.
- Protocol: Compounds of the invention were assayed for inhibition of CDK7, CDK9, CDK12, and CDK2 activity at Biortus Biosciences (Jiangyin, Jiangsu Province, P.R. of China) using kinase assays for each CDK developed with a Caliper/LabChip EZ Reader (Perkin Elmer, Waltham, Mass.). […]
pIC50: −log10 of the molar value.

Query :: Recorded pIC50 of CCc1cnc(NC2CCCNC2)nc1-c1c[nH]c2c(S(=O)O)cccc12 (stereo not shown) [Compound 363] , please.
Result :: 6.70 to 7.70

Query :: Please report the recorded pIC50 for COCn1cc(-c2nc(NC3CCCNC3)ncc2C(F)(F)F)c2cccc(C#N)c21 (stereo not shown) [Compound 295] .
Result :: 6.70 to 7.70

Query :: Would you kindly share the measured pIC50 for CC1CCNCC1Nc1ncc(C(F)(F)F)c(-c2c[nH]c3ccccc23)n1 (stereo not shown) [Compound 373] ?
Result :: 6.70 to 7.70

Query :: I would be grateful if you could share the reported pIC50 for O=C(c1ccc2c(-c3nc(NC4CCCNC4)ncc3C(F)(F)F)c[nH]c2c1)N1CC(O)C(F)(F)C1 (stereo not shown) [Compound 349] .
Result :: > 7.70

Query :: Query: pIC50; subject: CCc1cnc(NC2CCCNC2)nc1-c1n[nH]c2nc(C#N)ccc12 (stereo not shown) [Compound 277]
Result :: > 7.70

Query :: Entry FC(F)(F)c1cnc(N[C@H]2CCCNC2)nc1-c1c[nH]c2cc(-n3ccnc3)ccc12 [Compound 248] has what pIC50?
Result :: > 7.70

Query :: # pIC50 lookup, item Fc1cc2[nH]cc(-c3nc(NC4CCCNC4)ncc3C(F)(F)F)c2cc1F (stereo not shown) [Compound 184]
Result :: > 7.70

Query :: Entry under review: FC(F)(F)c1cnc(NC2CCCNC2)nc1-c1c[nH]c2cnc(Cl)cc12 (stereo not shown) [Compound 165] . Reported pIC50?
Result :: > 7.70

Query :: If you can, please state the reported pIC50 value of OCc1ncccc1-c1ccc2c(-c3nc(NC4CCCNC4)ncc3C(F)(F)F)c[nH]c2c1 (stereo not shown) [Compound 323] .
Result :: > 7.70

Query :: Item CC1(O)CCN(S(=O)(=O)c2ccc3c(-c4nc(NC5CCCNC5)ncc4C(F)(F)F)c[nH]c3c2)C1 (stereo not shown) [Compound 366] has what recorded pIC50?
Result :: 6.70 to 7.70

Query :: Which value of pIC50 has been reported for Cc1n[nH]cc1-c1ccc2[nH]cc(-c3nc(NC4CCCNC4)ncc3C(F)(F)F)c2c1 (stereo not shown) [Compound 229] in the records?
Result :: > 7.70

Query :: // lookup pIC50 for OCCc1cccc(-c2ccc3c(-c4nc(NC5CCCNC5)ncc4C(F)(F)F)c[nH]c3c2)c1 (stereo not shown) [Compound 324]
Result :: 6.70 to 7.70

Query :: Look up pIC50: O=C1CCc2ccc(-c3ccc4c(-c5nc(NC6CCCNC6)ncc5C(F)(F)F)c[nH]c4c3)cc2N1 (stereo not shown) [Compound 334]
Result :: 6.70 to 7.70

Query :: # get_value(readout='pIC50', item= C=Cc1cnc(NC2CCCNC2)nc1-c1c[nH]c2ccccc12 (stereo not shown) [Compound 218] )
Result :: > 7.70

Query :: Reported pIC50 for O=S1(=O)CCn2cc(-c3nc(N[C@H]4CCCNC4)ncc3C(F)(F)F)c3cccc1c32 [Compound 348] : what is it?
Result :: 6.70 to 7.70

Query :: Would you kindly share the measured pIC50 for CNC(=O)C1CNCC(Nc2ncc(C(F)(F)F)c(-c3c[nH]c4ccccc34)n2)C1 (stereo not shown) [Compound 256] ?
Result :: 6.70 to 7.70

---

- testSystem: CDK2/Cyclin E1 complex (Homo sapiens)
- assayProtocol: CDK2 kinase inhibition assay (Caliper/LabChip EZ Reader)
- statedConditions: CDK2/Cyclin E1 0.5 nM, ATP 2 mM, 35 min at 27° C.
Assignment: determine reported IC50 for the given molecules.

Query :: Look up IC50 for this molecule: Cc1cn(-c2cccc3c(-c4nc(NC5CCCNC5)ncc4C(F)(F)F)c[nH]c23)cn1 (stereo not shown)
Result :: 0.2 to 5 µM

Query :: Consider the molecule shown here: FC1(F)CNC[C@@H](Nc2ncc(C(F)(F)F)c(-c3c[nH]c4ccccc34)n2)C1 What is its recorded IC50?
Result :: 0.2 to 5 µM

Query :: // lookup IC50 for Clc1cnc(NC2CCCNC2)nc1-c1cn(-c2ccccc2)c2ccccc12 (stereo not shown)
Result :: ≥ 5 µM

Query :: Sample Cc1cnc(NC2CCCNC2)nc1-c1c[nH]c2ccccc12 (stereo not shown) — what was its IC50?
Result :: ≥ 5 µM

Query :: May I ask what IC50 has been recorded for CC1(O)CCN(C(=O)c2ccc3c(-c4nc(NC5CCCNC5)ncc4C(F)(F)F)c[nH]c3c2)C1 (stereo not shown) [Compound 221] ?
Result :: ≥ 5 µM

Query :: Report IC50 for CCc1cnc(NC2CCCNC2)nc1-c1c[nH]c2c(S(=O)(=O)C(C)C)cccc12 (stereo not shown) please.
Result :: ≥ 5 µM

Query :: So what's the measured IC50 for this one? Fc1cc2[nH]cc(-c3nc(NC4CCCNC4)ncc3Cl)c2cc1F (stereo not shown)
Result :: 0.2 to 5 µM

Query :: Consider the molecule shown here: CC(C)C1CCC(Nc2nccc(-c3c[nH]c4ccccc34)n2)CN1 (stereo not shown) What is its recorded IC50?
Result :: 0.2 to 5 µM

Query :: I am curious: what IC50 value has been reported for O=C(c1cccc(-c2ccc3c(-c4nc(NC5CCCNC5)ncc4C(F)(F)F)c[nH]c3c2)c1)N1CCCC1 (stereo not shown) ?
Result :: 0.2 to 5 µM

Query :: Which value of IC50 has been reported for CCC(=O)NC1CNCC(Nc2ncc(C(F)(F)F)c(-c3c[nH]c4c(S(C)(=O)=O)cccc34)n2)C1 (stereo not shown) in the records?
Result :: 0.2 to 5 µM

Query :: Fill blank: measured IC50 of the molecule C#Cc1cnc(NC2CCCNC2)nc1-c1c[nH]c2ccccc12 (stereo not shown) is ____.
Result :: 0.2 to 5 µM

Query :: # lookup: IC50 of CC(C)S(=O)(=O)c1ccc2c(-c3nc(NC4CCCNC4)ncc3C(F)(F)F)c[nH]c2c1 (stereo not shown)
Result :: 0.2 to 5 µM

Query :: What value of IC50 has been reported for the following molecule? FC(F)(F)c1cnc(NC2CCCNC2)nc1-c1c[nH]c2ccc(-c3cn[nH]c3)cc12 (stereo not shown)
Result :: ≥ 5 µM

Query :: Would you kindly share the measured IC50 for Cc1ccc2[nH]cc(-c3nc(NC4CCCNC4)ncc3Cl)c2c1 (stereo not shown) ?
Result :: 0.2 to 5 µM

Query :: Suppose we examine the molecule N#Cc1ccc2c(-c3nc(NC4CCCNC4)ncc3Cl)c[nH]c2c1 (stereo not shown) ; what IC50 value has been reported?
Result :: 0.2 to 5 µM

Query :: What IC50 value was documented for this molecule, FC(F)(F)c1cnc(NC2CCCNC2)nc1-c1c[nH]c2c(-c3ccnnc3)cccc12 (stereo not shown) ?
Result :: 0.02 to 0.2 µM

Query :: For the molecule shown here, Brc1cnc(N[C@@H]2CCCNC2)nc1-c1c[nH]c2ccccc12 , give the reported IC50.
Result :: 0.02 to 0.2 µM

Query :: Can you look up the measured IC50 of CC(C)CN1CCCC(Nc2ncc(Cl)c(-c3c[nH]c4ccccc34)n2)C1 (stereo not shown) for me?
Result :: ≥ 5 µM

Query :: Could you share which IC50 value was measured for FC(F)(F)c1cnc(NC2CCC3(CC3)NC2)nc1-c1c[nH]c2ccccc12 (stereo not shown) ?
Result :: 0.2 to 5 µM

Query :: IC50 for O=C(O)c1cccc2c(-c3nc(NC4CCCNC4)ncc3Cl)c[nH]c12 (stereo not shown) ?
Result :: ≥ 5 µM

Query :: Need IC50, item CCc1cnc(NC2CCCNC2)nc1-c1c[nH]c2c(S(=O)O)cccc12 (stereo not shown)
Result :: ≥ 5 µM

Query :: Returns the measured IC50 for the input molecule. Input: [O-][S+](c1ccc2c(-c3nc(NC4CCCNC4)ncc3C(F)(F)F)c[nH]c2c1)C(F)F (stereo not shown)
Result :: 0.2 to 5 µM

Query :: // returns reported IC50 for input CC1CCNCC1Nc1ncc(C(F)(F)F)c(-c2c[nH]c3ccccc23)n1 (stereo not shown) [Compound 372]
Result :: 0.2 to 5 µM

Query :: Which IC50 is listed for Fc1cccc2c(-c3nc(NC4CCCNC4)ncc3Cl)c[nH]c12 (stereo not shown) ?
Result :: 0.2 to 5 µM

Query :: Please give the measured IC50 for this molecule: Clc1cnc(N[C@H]2CCCNC2)nc1-c1n[nH]c2ccccc12
Result :: 0.2 to 5 µM

Query :: Please look up its IC50: Clc1cnc(NC2CCCNC2)nc1-c1c[nH]c2ccccc12 (stereo not shown) [Compound 100]
Result :: 0.2 to 5 µM

Query :: Quick one: IC50 of Cc1ccncc1-c1ccc2c(-c3nc(NC4CCCNC4)ncc3C(F)(F)F)c[nH]c2c1 (stereo not shown) ?
Result :: 0.2 to 5 µM

Query :: Can you share its IC50? I mean this molecule: Fc1cc2[nH]nc(-c3nc(NC4CCCNC4)ncc3C(F)(F)F)c2cc1F (stereo not shown)
Result :: 0.2 to 5 µM

Query :: So what does the record say about IC50 for Cn1cc(-c2nc(NC3CCCNC3)ncc2C(F)(F)F)c2cccc(S(C)(=O)=O)c21 (stereo not shown) ?
Result :: ≥ 5 µM

Query :: Given c1ccc2c(-c3nc(NC4CCCNC4)ncc3C3CC3)c[nH]c2c1 (stereo not shown) , state its recorded IC50.
Result :: ≥ 5 µM

Query :: Look up IC50 for this molecule: C#Cc1cnc(N[C@H]2CCCNC2)nc1-c1cn(C)c2ccccc12
Result :: ≥ 5 µM

Query :: # input molecule: CC(C)C1CC[C@H](Nc2ncc(C(F)(F)F)c(-c3c[nH]c4ccccc34)n2)CN1 (stereo partly shown) ; wanted: its IC50
Result :: ≥ 5 µM

Query :: Name the reported IC50 value associated with the molecule COCCn1cc(-c2nc(NC3CCCNC3)ncc2Cl)c2ccccc21 (stereo not shown)
Result :: ≥ 5 µM

Query :: Given the entry N#Cc1ccc2c(-c3nc(NC4CCCNC4)ncc3C(F)(F)F)c[nH]c2c1C#N (stereo not shown) , report its measured IC50.
Result :: 0.2 to 5 µM
